Cited source: ChEMBL document CHEMBL1125133

system.under.test: GABA-A receptor; anion channel
assay.overview: Inhibitory concentration against specific binding of [3H]diazepam to Benzodiazepine receptor in rat brain
pIC50: −log10 of the molar value.
Would you mind labelling by pIC50? At or over 6 is true (1), under is false (0).

Consider the following illustrative entries.
- C[C@H](c1ccccc1)n1cnc2c(N(C)C)ncnc21: false (0)
- CC(c1cccc(O)c1)n1cnc2c(O)ncnc21 (racemic): false (0)
- CSc1ncnc2c1ncn2C(C)c1cccc(OC(C)=O)c1 (racemic): false (0)
- CC(=O)Oc1cccc(C(C)n2cnc3c(N(C)C)ncnc32)c1 (racemic): true (1)
- CC(c1cccc(N)c1)n1c(Br)nc2c(N(C)C)ncnc21 (racemic): true (1)

Dear colleague, could you confirm whether CC(c1cccc(N)c1)n1cnc2c(N(C)C)ncnc21 (racemic) has pIC50 at or above 6?
true (1)

Could you please find out whether CC(c1cccc(O)c1)n1cnc2c(N(C)C)ncnc21 (racemic) has pIC50 that meets 6 or exceeds it?
true (1)

====

Below is a list of entries, each paired with its recorded Change value.
Organism: Rattus norvegicus
assay.overview: Percent change in conflict responding in Long-Evans rats
Assay type: functional
Write it as a number; the unit % goes unstated.

* CC(c1cccc(O)c1)n1cnc2c(N(C)C)ncnc21 (racemic) | -7

Output measured Change for this item: `CC(=O)Oc1cccc(Cn2cnc3c(N(C)C)ncnc32)c1`
2

Indicate its recorded Change; the molecule in question is `C[C@@H](c1ccccc1)n1cnc2c(N(C)C)ncnc21`
5

Check the records and state Change for `CN(C)c1ncnc2c1ncn2Cc1cccc(O)c1`
2

Assign Change to the following record: CC(c1cccc(N)c1)n1cnc2c(N(C)C)ncnc21 (racemic)
-22

Consider the molecule CC(c1cccc(N)c1)n1c(Br)nc2c(N(C)C)ncnc21 (racemic) . State its measured Change.
5

For the molecule `CSc1ncnc2c1ncn2Cc1ccccc1` , give its reported Change.
13
